B1: Azoarcus group I ribozyme (parent)
chain: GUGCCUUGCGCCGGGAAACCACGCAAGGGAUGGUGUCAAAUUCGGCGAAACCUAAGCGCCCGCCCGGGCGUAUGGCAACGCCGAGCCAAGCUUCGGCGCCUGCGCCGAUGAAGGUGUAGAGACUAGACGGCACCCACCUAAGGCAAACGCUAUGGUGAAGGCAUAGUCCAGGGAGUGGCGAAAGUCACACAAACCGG

variants of: B1; assay: reverse-splicing fitness (ratio to wild type); higher = more active; in vitro selection; Mg2+ level not given
Known reverse-splicing fitness of a selection of variants
Lab note: jot down the number only; don't add units.

[
  {
    "MUTATION": "C82U A120U A145G C150A C169A U176A",
    "RESULT TYPE": "reverse-splicing fitness",
    "RESULT": 0.00482
  }
]

Prompt line: Suppose we examine the variant C82G A111G A120C A145U C169A ; what reverse-splicing fitness value has been reported?
Response line: 0.00712

Prompt line: Reported reverse-splicing fitness for C82A A120C A145U U176G : what is it?
Response line: 0.00885

Prompt line: Which reverse-splicing fitness value is on record for A111G A120G C150U U176A ?
Response line: 0.0505
